B1: Membrane-associated guanylate kinase, WW and PDZ domain-containing protein 1, residues 352 to 401; numbered along this chain, Q96QZ7 (parent)
chain: TEELDSELELPAGWEKIEDPVYGIYYVDHINRKTQYENPVLEAKRKKQLE

- Variants of: B1
- method: abundance fitness (aPCA) (normalised: wild type 0, dead -1); higher = more abundant; growth selection in yeast, the domain comes from the species named
- condition: Homo sapiens
measured-endpoint: abundance fitness
The answer should be written as a number, with no unit following it.

Solved entries:
variant | numeric-readout
E15R | -0.38
G13I | -0.63

Shift focus to the following entry.
Looking up P39F , I found its abundance fitness recorded as -1
